The origin of these recorded values is patent US20240368135A1.

- measuredTarget: human NaV 1.8 (Homo sapiens)
- Sequence (Q9Y5Y9 126-399 limits assumed): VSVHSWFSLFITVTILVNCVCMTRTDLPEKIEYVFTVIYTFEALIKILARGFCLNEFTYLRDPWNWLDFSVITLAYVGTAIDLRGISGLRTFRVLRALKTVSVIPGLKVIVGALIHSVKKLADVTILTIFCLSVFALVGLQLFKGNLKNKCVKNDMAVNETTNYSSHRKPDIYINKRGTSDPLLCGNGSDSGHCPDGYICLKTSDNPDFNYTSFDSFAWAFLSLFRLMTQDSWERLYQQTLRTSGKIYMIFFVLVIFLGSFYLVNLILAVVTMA
- Sequence (Q9Y5Y9 660-890 limits assumed): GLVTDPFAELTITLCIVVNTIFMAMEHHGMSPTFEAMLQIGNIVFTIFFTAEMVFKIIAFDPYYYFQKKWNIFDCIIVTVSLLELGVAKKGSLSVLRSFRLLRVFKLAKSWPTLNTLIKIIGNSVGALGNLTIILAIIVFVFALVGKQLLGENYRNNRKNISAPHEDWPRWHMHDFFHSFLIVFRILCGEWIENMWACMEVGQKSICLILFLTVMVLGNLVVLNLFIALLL
- Sequence (Q9Y5Y9 1148-1722 limits assumed): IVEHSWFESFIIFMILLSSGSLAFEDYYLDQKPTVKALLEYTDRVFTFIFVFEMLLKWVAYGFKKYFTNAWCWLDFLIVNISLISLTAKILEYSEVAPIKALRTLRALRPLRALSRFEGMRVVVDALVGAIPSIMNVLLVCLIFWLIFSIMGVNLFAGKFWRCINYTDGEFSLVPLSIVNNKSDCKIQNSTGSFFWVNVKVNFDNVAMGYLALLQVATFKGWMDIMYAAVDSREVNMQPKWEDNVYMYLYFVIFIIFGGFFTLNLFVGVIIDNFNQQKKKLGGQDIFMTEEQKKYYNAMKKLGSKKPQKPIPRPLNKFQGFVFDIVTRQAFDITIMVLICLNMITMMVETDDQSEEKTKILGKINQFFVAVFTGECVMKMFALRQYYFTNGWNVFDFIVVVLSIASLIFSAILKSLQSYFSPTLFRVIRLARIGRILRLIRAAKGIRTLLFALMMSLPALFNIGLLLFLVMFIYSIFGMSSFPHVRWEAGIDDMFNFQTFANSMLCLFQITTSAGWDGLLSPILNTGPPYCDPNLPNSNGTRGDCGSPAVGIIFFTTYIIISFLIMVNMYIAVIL
- assaySummary: E-VIPR assay detecting and measuring NaV inhibition properties
- Format: cell-based
- conditionsUsed: HEK cells expressing truncated human NaV 1.8; no human serum; read-out: IC50 in the E-VIPR Assay
- From the text: Sodium ion channels are voltage-dependent proteins that can be activated by inducing membrane voltage changes by applying electric fields. The electrical stimulation instrument and methods of use, referred to as E-VIPR, are described in International Publication No. WO 2002/008748 A3 and C.-J. Huang et al. Characterization of voltage-gated sodium channel blockers by electrical stimulation and fluorescence detection of membrane potential, 24 Nature Biotech. […]
I'd be grateful if you could share measured IC50 for these entries.

So what's the measured IC50 for this one? COCC(c1ccc(NC(=O)[C@@H]2O[C@@](C)(C(F)(F)F)[C@@H](C)[C@H]2c2ccc(F)c(F)c2OC)cn1)N1CCC1 (single isomer, unassigned)
≥ 1000 nM

So what's the measured IC50 for this one? `COc1c([C@H]2[C@H](C(=O)Nc3c[nH]nn3)O[C@@](C)(C(F)(F)F)[C@H]2C)ccc(F)c1F`
10 to 100 nM

So what's the measured IC50 for this one? COc1c([C@H]2[C@H](C(=O)Nc3ccnc(C(O)CN(C)C)c3)O[C@@](C)(C(F)(F)F)[C@H]2C)ccc(F)c1F (stereo partly drawn)
< 10 nM

So what's the measured IC50 for this one? CC(C)Oc1c([C@@H]2[C@@H](C(=O)Nc3ccnc(S(C)(=N)=O)c3)O[C@](C)(C(F)(F)F)[C@@H]2C)ccc(F)c1F (single isomer, unassigned) [Compound 117]
100 to 1000 nM

So what's the measured IC50 for this one? C[C@H]1[C@@H](c2ccc(F)c(F)c2OC(F)F)[C@H](C(=O)Nc2ccc(=O)n(C)c2)O[C@@]1(C)C(F)(F)F (single isomer, unassigned)
10 to 100 nM

So what's the measured IC50 for this one? C[C@H]1[C@@H](c2ccc(F)c(F)c2OC(F)F)[C@H](C(=O)Nc2ccn3nnnc3c2)O[C@@]1(C)C(F)(F)F (single isomer, unassigned)
< 10 nM

So what's the measured IC50 for this one? `COc1c([C@H]2[C@H](C(=O)Nc3ccnc(C4(N(C)C)COC4)c3)O[C@@](C)(C(F)(F)F)[C@H]2C)ccc(F)c1F`
< 10 nM

So what's the measured IC50 for this one? COc1c(C2C(C(=O)Nc3ccnc(C(O)C(C)O)c3)OC(C)(C(F)(F)F)C2C)ccc(F)c1F (stereo not drawn)
< 10 nM

So what's the measured IC50 for this one? COc1c([C@H]2[C@H](C(=O)NC(C)C(=O)NC3CC3)O[C@@](C)(C(F)(F)F)[C@H]2C)ccc(F)c1F (stereo partly drawn)
≥ 1000 nM

So what's the measured IC50 for this one? `COc1c([C@H]2[C@H](C(=O)Nc3ccc(-n4ccc(C)n4)nc3)O[C@@](C)(C(F)(F)F)[C@H]2C)ccc(F)c1F`
10 to 100 nM

So what's the measured IC50 for this one? `COc1c([C@H]2[C@H](C(=O)Nc3ccnc(C[C@H](O)CO)c3)O[C@@](C)(C(F)(F)F)[C@H]2C)ccc(F)c1F`
< 10 nM

So what's the measured IC50 for this one? COc1c(C2C(C(=O)Nc3ccnc(S(C)(=N)=O)c3)OC(C)(C(F)(F)F)C2C)ccc(F)c1F (single isomer, unassigned) [Compound 56]
100 to 1000 nM

So what's the measured IC50 for this one? COc1c([C@H]2[C@H](C(=O)Nc3ccnc(N4CC(N(C)C)CC4=O)c3)O[C@@](C)(C(F)(F)F)[C@H]2C)ccc(F)c1F (single isomer, unassigned)
10 to 100 nM

So what's the measured IC50 for this one? `COCC(C)(C)N(C)Cc1cc(NC(=O)[C@@H]2O[C@@](C)(C(F)(F)F)[C@@H](C)[C@H]2c2ccc(F)c(F)c2OC)ccn1`
10 to 100 nM

So what's the measured IC50 for this one? `C[C@H]1[C@@H](c2ccc(F)c(F)c2OCCO)[C@H](C(=O)Nc2ccn(C)c(=O)c2)O[C@@]1(C)C(F)(F)F`
10 to 100 nM

So what's the measured IC50 for this one? `C=Cc1c([C@H]2[C@H](C(=O)Nc3cn(C(F)F)nc3C)O[C@@](C)(C(F)(F)F)[C@H]2C)ccc(F)c1F`
< 10 nM

So what's the measured IC50 for this one? COc1c([C@H]2[C@H](C(=O)NC(C)c3ccn[nH]3)O[C@@](C)(C(F)(F)F)[C@H]2C)ccc(F)c1F (stereo partly drawn)
≥ 1000 nM

So what's the measured IC50 for this one? COc1c(C2C(C(=O)Nc3ccc(C(N)=O)nc3)OC(C)(C(F)(F)F)C2C)ccc(C(F)F)c1F (stereo not drawn) [Compound 158]
10 to 100 nM

So what's the measured IC50 for this one? CCS(=O)(=O)c1cc(NC(=O)C2OC(C)(C(F)(F)F)C(C)C2c2ccc(F)c(F)c2OC)ccn1 (single isomer, unassigned) [Compound 52]
≥ 1000 nM

So what's the measured IC50 for this one? `COCCOc1c([C@H]2[C@H](C(=O)Nc3ccnc(CO)c3)O[C@@](C)(C(F)(F)F)[C@H]2C)ccc(F)c1F`
< 10 nM

So what's the measured IC50 for this one? `C[C@H]1[C@@H](c2ccc(F)c(F)c2OCCN2CCOCC2)[C@H](C(=O)Nc2ccn(C)c(=O)c2)O[C@@]1(C)C(F)(F)F`
10 to 100 nM

So what's the measured IC50 for this one? COCCNC(COC)c1ccc(NC(=O)[C@@H]2O[C@@](C)(C(F)(F)F)[C@@H](C)[C@H]2c2ccc(F)c(F)c2OC)cn1 (single isomer, unassigned)
10 to 100 nM

So what's the measured IC50 for this one? `Cc1nocc1NC(=O)[C@@H]1O[C@@](C)(C(F)(F)F)[C@@H](C)[C@H]1c1ccc(F)c(F)c1OCCN1CC(C)(F)C1`
10 to 100 nM

So what's the measured IC50 for this one? C[C@H]1[C@@H](c2ccc(F)c(F)c2OC(F)F)[C@H](C(=O)Nc2ccnc(S(C)(=O)=O)c2)O[C@@]1(C)C(F)(F)F (single isomer, unassigned)
< 10 nM
